src = patent US12570671B2

Target: Helios (Homo sapiens, UniProt Q96SW2+Q9UKS7)
Sequence (Q9UKS7 whole entry): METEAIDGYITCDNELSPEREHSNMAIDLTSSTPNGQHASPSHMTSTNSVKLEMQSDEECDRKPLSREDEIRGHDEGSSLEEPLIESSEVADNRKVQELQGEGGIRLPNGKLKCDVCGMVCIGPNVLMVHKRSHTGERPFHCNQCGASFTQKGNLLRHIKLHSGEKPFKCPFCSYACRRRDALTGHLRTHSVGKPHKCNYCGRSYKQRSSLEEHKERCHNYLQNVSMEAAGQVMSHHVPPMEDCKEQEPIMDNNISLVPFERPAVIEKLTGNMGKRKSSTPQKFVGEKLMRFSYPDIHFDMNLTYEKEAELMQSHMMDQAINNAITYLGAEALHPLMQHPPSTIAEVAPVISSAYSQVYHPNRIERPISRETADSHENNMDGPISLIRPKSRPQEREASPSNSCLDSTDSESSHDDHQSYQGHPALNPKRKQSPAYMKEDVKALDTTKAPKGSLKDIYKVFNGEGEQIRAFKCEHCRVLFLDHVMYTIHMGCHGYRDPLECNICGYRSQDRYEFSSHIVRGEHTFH
Sequence (Q96SW2 whole entry): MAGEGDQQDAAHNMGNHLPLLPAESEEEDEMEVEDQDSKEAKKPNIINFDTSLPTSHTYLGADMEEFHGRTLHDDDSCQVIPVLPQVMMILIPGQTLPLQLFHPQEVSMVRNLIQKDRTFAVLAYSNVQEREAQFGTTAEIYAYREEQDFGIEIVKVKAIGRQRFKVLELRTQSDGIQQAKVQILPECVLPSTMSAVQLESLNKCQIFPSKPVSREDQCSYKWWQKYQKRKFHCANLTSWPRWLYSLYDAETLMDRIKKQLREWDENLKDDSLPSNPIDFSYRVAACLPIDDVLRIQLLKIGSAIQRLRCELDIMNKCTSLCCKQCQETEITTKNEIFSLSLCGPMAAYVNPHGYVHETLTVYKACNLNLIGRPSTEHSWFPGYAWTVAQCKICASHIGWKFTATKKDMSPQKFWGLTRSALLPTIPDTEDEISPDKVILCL
Sequence (Q16531 whole entry partner): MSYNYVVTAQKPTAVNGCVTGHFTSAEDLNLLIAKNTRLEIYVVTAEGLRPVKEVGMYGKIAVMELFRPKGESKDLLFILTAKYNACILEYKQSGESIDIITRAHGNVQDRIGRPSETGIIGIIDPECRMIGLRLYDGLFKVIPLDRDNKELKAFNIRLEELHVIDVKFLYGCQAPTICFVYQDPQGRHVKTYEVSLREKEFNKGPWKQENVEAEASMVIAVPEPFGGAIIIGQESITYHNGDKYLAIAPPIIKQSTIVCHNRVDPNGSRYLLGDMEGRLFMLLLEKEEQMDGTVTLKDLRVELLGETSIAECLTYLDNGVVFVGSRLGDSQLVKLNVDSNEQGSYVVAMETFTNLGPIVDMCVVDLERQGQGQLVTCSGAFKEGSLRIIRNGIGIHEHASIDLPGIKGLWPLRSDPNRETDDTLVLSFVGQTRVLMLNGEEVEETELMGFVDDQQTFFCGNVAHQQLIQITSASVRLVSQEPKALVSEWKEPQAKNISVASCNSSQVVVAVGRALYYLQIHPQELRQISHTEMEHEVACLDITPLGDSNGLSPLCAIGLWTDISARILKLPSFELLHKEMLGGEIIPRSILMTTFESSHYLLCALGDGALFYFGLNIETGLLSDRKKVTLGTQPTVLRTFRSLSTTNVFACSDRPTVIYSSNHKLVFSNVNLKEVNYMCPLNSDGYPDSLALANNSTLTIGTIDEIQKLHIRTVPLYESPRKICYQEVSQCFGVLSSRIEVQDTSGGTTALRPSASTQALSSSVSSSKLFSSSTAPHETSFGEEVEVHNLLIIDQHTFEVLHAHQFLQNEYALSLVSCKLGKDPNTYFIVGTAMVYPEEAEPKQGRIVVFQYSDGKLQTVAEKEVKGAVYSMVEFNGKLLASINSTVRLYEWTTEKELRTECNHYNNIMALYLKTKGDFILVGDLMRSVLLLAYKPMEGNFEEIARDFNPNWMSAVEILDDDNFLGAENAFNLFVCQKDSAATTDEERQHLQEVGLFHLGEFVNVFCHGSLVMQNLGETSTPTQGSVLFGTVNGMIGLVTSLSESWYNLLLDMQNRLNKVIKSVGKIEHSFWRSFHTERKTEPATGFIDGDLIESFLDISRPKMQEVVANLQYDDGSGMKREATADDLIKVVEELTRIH
Assay: Helios Cellular Degradation Assay (Helios readout)
Type: cell-based
Set-up: endogenous in cells; host or cells: Jurkat
Details: Jurkat cells, 72 h incubation, Helios-PE antibody staining, flow cytometry; read-out: Helios Jurkat IC50
property-measured: DC50 (nM)

Query: Which DC50 is listed for O=C1CCC(N2Cc3cc(-c4cnc5cc(F)ccc5n4)ccc3C2=O)C(=O)N1 (centres unmarked) ?
Reply: 98

Query: Which DC50 is listed for O=C1CCC(N2Cc3cc(-c4ncc(OCc5ccccc5)c5ccccc45)ccc3C2=O)C(=O)N1 (centres unmarked) ?
Reply: 140

Query: Which DC50 is listed for O=C1CCC(N2Cc3cc(-c4nccc5[nH]ccc45)ccc3C2=O)C(=O)N1 (centres unmarked) ?
Reply: 70

Query: Which DC50 is listed for CN1CCc2nc(-c3ccc4c(c3)CN(C3CCC(=O)NC3=O)C4=O)ccc2C1=O (centres unmarked) ?
Reply: 1500

Query: Which DC50 is listed for O=C1CCC(N2Cc3cc(-c4nc5ccccc5nc4O)ccc3C2=O)C(=O)N1 (centres unmarked) ?
Reply: 200

Query: Which DC50 is listed for CC(=O)N(C)c1nc(-c2ccc3c(c2)CN(C2CCC(=O)NC2=O)C3=O)cc2ccccc12 (centres unmarked) ?
Reply: 210

Query: Which DC50 is listed for O=C1CCC(N2Cc3cc(-c4nc5ccccc5cc4Cl)ccc3C2=O)C(=O)N1 (centres unmarked) ?
Reply: 110

Query: Which DC50 is listed for N#Cc1cc2ccccc2c(-c2ccc3c(c2)CN(C2CCC(=O)NC2=O)C3=O)n1 (centres unmarked) ?
Reply: 24

(P) CC(C)c1nc2ccccc2nc1-c1ccc2c(c1)CN(C1CCC(=O)NC1=O)C2=O (centres unmarked)
(Q) COc1cccc(-c2ccc3c(c2)CN(C2CCC(=O)NC2=O)C3=O)n1 (centres unmarked)
(R) COc1ccc2c(-c3ccc4c(c3)CN(C3CCC(=O)NC3=O)C4=O)nccc2c1 (centres unmarked)
(S) Cc1cc2ccccc2nc1-c1ccc2c(c1)CN(C1CCC(=O)NC1=O)C2=O (centres unmarked)
(T) COc1ccc(N)nc1-c1ccc2c(c1)CN(C1CCC(=O)NC1=O)C2=O (centres unmarked)
Query: hey, can you rank those molecules up there by DC50? biggest number first please # answer = labels listed in requested order
Reply: Q, P, S, T, R
(Q: 5330 nM, P: 860 nM, S: 480 nM, T: 20 nM, R: 14 nM)

(1) N#CCc1ccnc(-c2ccc3c(c2)CN(C2CCC(=O)NC2=O)C3=O)c1 (centres unmarked)
(2) CCOc1c(-c2ccc3c(c2)CN([C@H]2CCC(=O)NC2=O)C3=O)nc(N)c2ccccc12
Query: Quick one: lower DC50, 1 or 2 ? Bench note: the answer is the label of the chosen record.
Reply: 2
(2: 3 nM, 1: 930 nM)
